Sourced from PubChem BioAssay (NCI)

Test system: K-562 leukemia
Assay: NCI-60 one-dose screen, 48 h
Settings: 10 µM unless noted
This is part of a sample that, as a whole, favours compounds with a hit. Of some 83,000 tested, about 20% had one in any assay. Active and inactive are the calls of the source. Rule for the calls: active = growth percent below 10; inactive = the rest.
Hi there, use one of these labels in your reply, thanks! active, inactive

compound	assigned_label
CCCN1CCN(c2ccc3nc(-c4ccc5nc(-c6ccc(OCC)cc6)[nH]c5c4)[nH]c3c2)CC1	active
O=C(/C=C/c1cccc(Cl)c1)c1ccc(O)c(CN2CCN(c3cc4c(cc3F)c(=O)c(C(=O)O)cn4C3CC3)CC2)c1	inactive
COc1ccc(Nc2cc(C)nc(N3CCN(c4ccnc5cc(Cl)ccc45)CC3)n2)cc1	inactive

Qu. Just curious, what result did CCn1c(O)c(/C=N/NC(=O)C(C)c2ccc(CC(C)C)cc2)sc1=S (configuration not stated) get here?
Ans. active

Qu. Just curious, what result did C=CCSSC1N=CNc2nc[nH]c21 (configuration not stated) get here?
Ans. inactive

Qu. Just curious, what result did `COc1cc2c(cc1-c1c(C)noc1C)ncc1nc(C3CCC(F)(F)CC3)n([C@H](C)COC(F)F)c12` get here?
Ans. inactive

Qu. Just curious, what result did `COC[C@H](C)n1c(C2CCOCC2)nc2cnc3cc(-c4c(C)noc4C)c(OC)cc3c21` get here?
Ans. inactive

Qu. Just curious, what result did `O=c1c2c3c(sc2nc(N/N=C/c2cn(-c4ccccc4)nc2-c2ccc(Cl)cc2)n1Cc1ccccc1)CCCC3` get here?
Ans. active

Qu. Just curious, what result did `O=C(Oc1cccnc1)c1ccsc1Nc1ccnc(C(F)(F)F)c1` get here?
Ans. inactive

Qu. Just curious, what result did `COc1cc2c(cc1-c1c(C)noc1C)ncc1nc(C3CCOCC3)n([C@@H](C)COC(F)F)c12` get here?
Ans. inactive

Qu. Just curious, what result did COc1cccc(C2=NN3C(C2)c2cc(Br)cc(OC)c2OC32CCN(Cc3ccccc3)CC2)c1 (configuration not stated) get here?
Ans. inactive

Qu. Just curious, what result did `CCCn1c(=O)[nH]c(N)c([C@H]2c3ccccc3Oc3[nH]c(=O)n(CCC)c(=O)c32)c1=O` get here?
Ans. inactive

Qu. Just curious, what result did `CSc1nc(Nc2cccc(NC(=O)/C(C#N)=C/c3c(Cl)cccc3Cl)c2)c(C#N)c(-c2cccc([N+](=O)[O-])c2)n1` get here?
Ans. inactive

Qu. Just curious, what result did `COC(=O)c1ccc2oc(NC(=O)c3ccc(Nc4ccc([N+](=O)[O-])cc4C)c([N+](=O)[O-])c3)nc2c1` get here?
Ans. inactive

Qu. Just curious, what result did O=C1OCC2=C1C(c1ccncc1)c1cc3c(cc1N2CCO)OCO3 (configuration not stated) get here?
Ans. inactive

Qu. Just curious, what result did `CSc1nc(NCc2ccccc2)c(C#N)c(-c2cccc([N+](=O)[O-])c2)n1` get here?
Ans. inactive

Qu. Just curious, what result did Cc1ccc(NC(=O)C2CCC(CN3CCN(C)CC3)CC2)cc1Nc1nccc(-c2cccnc2)n1 (configuration not stated) get here?
Ans. inactive

Qu. Just curious, what result did CCOc1cc2c(cc1OCC)C(c1cc(OC)c(O)cc1Cl)NCC2 (configuration not stated) get here?
Ans. inactive

Qu. Just curious, what result did `Oc1ccccc1-c1nnc(CNc2ccc(Cl)cc2)o1` get here?
Ans. inactive

Qu. Just curious, what result did `O=C1c2cc3c(cc2-c2c1c1ccc(Cl)cc1c(=O)n2CCCN1CCOCC1)OCO3` get here?
Ans. inactive

Qu. Just curious, what result did `CN(C)CCCNc1c2ccccc2nc2ccccc12` get here?
Ans. inactive

Qu. Just curious, what result did `CNc1ccc(-c2cc(=O)oc3ccc(Cl)cc23)cc1` get here?
Ans. inactive

Qu. Just curious, what result did `C=C(C)[C@@H]1CC[C@]2(C(N)=O)CC[C@]3(C)[C@H](CC[C@@H]4[C@@]5(C)C/C(=C/c6ccco6)C(=O)C(C)(C)[C@@H]5CC[C@]43C)[C@@H]12` get here?
Ans. inactive

----------
Test system: CCRF-CEM leukemia
Test: NCI-60 one-dose screen, 48 h (100 = growth as untreated, 0 = no growth, -100 = all killed)
Conditions: 10 µM unless noted
The panel holds about 83,000 compounds, 20% with a hit somewhere; the sample as a whole holds those more often. Activity calls are given as the source filed them. The calls were made as follows: active = growth percent below 10; inactive = the rest.
Overview of reported growth across a group of molecules:

Some molecules with known growth results, for comparison:
molecule	result_type	measured
C=C1c2nc3ccccc3n2C=C(c2cccc(Cl)c2)N1Cc1ccc(OC)cc1	growth	47.2% (inactive)
CC1SC(c2ccc(N(C)C)cc2)N(NC(=O)C(O)(c2ccccc2)c2ccccc2)C1=O (stereo not given)	growth	65.1% (inactive)
COc1cc2c(cc1-c1c(C)noc1C)ncc1nc(C3CCOCC3)n([C@@H](C)COC(F)F)c12	growth	55.6% (inactive)
Clc1ccc2nc3nc4ccc[nH]c4cc3c2c1	growth	71.4% (inactive)
C#CCOc1ccc2ncnc(Nc3cccc(CNC(=O)CCl)c3)c2c1	growth	14.4% [8.25 µM] (inactive)
COc1ccc2nc(NC(=O)CSc3nnc4n3S(=O)(=O)c3ccccc3N4c3ccccc3)sc2c1	growth	-19.7% (active)

Qu. GET /values?readout=growth&item= `Oc1cccc(-c2nc(N3CCOCC3)c3c4c(sc3n2)CCCC4)c1`
Ans. 60.5% (inactive)

Qu. GET /values?readout=growth&item= `CC(C)(C)c1cc(C(C)(C)C)cc(S(=O)(=O)Nc2cc3ccccc3cc2C(=O)NCCN)c1`
Ans. 57.7% (inactive)

Qu. GET /values?readout=growth&item= `COc1ccc2cc(-c3nn(-c4ccc(C(=O)O)cc4)cc3CO)ccc2c1`
Ans. 102% (inactive)

Qu. GET /values?readout=growth&item= `Cc1cc(C)nc(SC2=C(Nc3ccc(O)cc3)C(=O)N(Cc3ccccc3)C2=O)n1`
Ans. 39.1% [40 µM] (inactive)

----------
Test system: NCI-H322M lung
Assay: NCI-60 one-dose screen, 48 h
Conditions: 10 µM unless noted
Method: Growth inhibition of the NCI-H322M human Non-Small Cell Lung tumor cell line is measured as a screen for anti-cancer activity. Cells are grown in 96 well plates and exposed to the test compound for 48 hours. Compounds are tested at a single concentration, which is 10^-5 M for most compounds. The reported endpoint is percent growth (GI% or GIPRCNT), where numbers from 0 - 100% represent growth inhibition, and numbers from -100% - 0 represent cell death. […]
The panel holds about 83,000 compounds, 20% with a hit somewhere; the sample as a whole holds those more often. The source made the active and inactive calls. Rule for the calls: active = growth percent below 10; inactive = the rest.
Hi there, use one of these labels in your reply, thanks! class 1 (active), class 0 (inactive)

Example entries begin here.
compound	assigned_label
Cc1c(/C=C/[N+](=O)[O-])ccc2c1[nH]c1ccccc12	class 0
O=S(=O)(Nc1ccc(I)cc1F)c1ccc(-c2cnc(C3CC3)o2)cc1	class 0
O=C(O)c1ccc(N=CC(=O)c2ccc(-c3ccccc3)cc2)cc1	class 0
CC[C@@H](C(=O)[C@@H](C)[C@@H](O)[C@H](C)[C@@H]1O[C@@H]([C@@H](CC)C(=O)O)CC[C@@H]1C)[C@H]1OC2(C=C[C@@H](O)[C@]3(CC[C@@](C)([C@H]4CC[C@](O)(CC)[C@H](C)O4)O3)O2)[C@H](C)C[C@@H]1C (stereo partly drawn)	class 0
CS(=O)(=O)c1ccc(-n2nc(-c3ccc(Br)cc3)c3ccccc3c2=O)cc1	class 0

Qu. Just curious, what result did OCC(O)c1nc2ccc3[nH]ncc3c2c2c1CCCC2 (stereo not drawn) get here?
Ans. class 1

Qu. Just curious, what result did `OCCN1CCN(c2nc(Nc3ccc(-c4nc5ccccc5[nH]4)cc3)c3cn[nH]c3n2)CC1` get here?
Ans. class 1

Qu. Just curious, what result did `Cc1cc(C)nc(SC2=C(Nc3ccc(O)cc3)C(=O)N(Cc3ccccc3)C2=O)n1` get here?
Ans. class 0

----------
System: M14 melanoma
Test: NCI-60 one-dose screen, 48 h
Conditions: 10 µM unless noted
Procedure: Growth inhibition of the M14 human tumor cell line is measured as a screen for anti-cancer activity. Cells are grown in 96 well plates and exposed to the test compound for 48 hours. Compounds are tested at a single concentration, which is 10^-5 M for most compounds. The reported endpoint is percent growth (GI% or GIPRCNT), where numbers from 0 - 100% represent growth inhibition, and numbers from -100% - 0 represent cell death. For example, a value of 40 represents 60% growth inhibition. […]
Compounds without any hit were thinned out: in the full panel of roughly 83,000, 20% have a hit. Active and inactive are the calls of the source. The calls were made as follows: active = growth percent below 10; inactive = the rest.
Hi there, use one of these labels in your reply, thanks! active, inactive

molecule	assigned_label
Cc1ccc(OC(=O)c2ccc(Cl)cc2)cc1	inactive
CCCCCCN(CCCCCC)C(=N)c1ccnc2ccccc12	inactive
COc1ccc(/C=C/c2nc(-c3n[nH]c(=O)n3-c3ccccc3)c3ccccc3n2)cc1	inactive
CCN(CC)c1ccc(-c2cc(-c3cc(OC)c(OC)c(OC)c3)nc(N3CCOCC3)c2C#N)cc1	active
O=C(O)c1ccc(N=CC(=O)c2ccc(-c3ccccc3)cc2)cc1	inactive

Qu. Just curious, what result did `OCCNc1nccc(N2CCN(c3ccnc4cc(Cl)ccc34)CC2)n1` get here?
Ans. inactive

Qu. Just curious, what result did `COc1cc2c(cc1-c1c(C)noc1C)ncc1nc(-c3ccccn3)n([C@H](C)COC(F)F)c12` get here?
Ans. inactive

Qu. Just curious, what result did `C=C1C(=O)O[C@H]2[C@H]1CC/C(COC(=O)NCCc1ccc(OC)c(OC)c1)=C\CC[C@@]1(C)O[C@@H]21` get here?
Ans. inactive

Qu. Just curious, what result did O=C1OCC2=C1C(c1ccncc1)c1cc3c(cc1N2CCO)OCO3 (stereo not given) get here?
Ans. inactive

Qu. Just curious, what result did `CCOc1ccc(C(C)=O)cc1NC(=O)c1cccc(-c2nnn(CC)n2)c1` get here?
Ans. active
